Experiment: Chemical stability in PBS buffer at pH 7.4 assessed as compound remaining after 16 hrs by HPLC
Assay type: physicochemical
Settings: read-out: Stability
Please respond with reported remaining at 16 h for every item in the list.
Numbers only, in %.

| MOLECULE | READOUT_KIND | REPORTED_VALUE |
| --- | --- | --- |
| CCCCCCCCCC(=O)O[C@H]1Cc2c(O)cc(O)cc2O[C@@H]1c1ccc(O)c(O)c1 | remaining at 16 h | 75 |

Retrieve remaining at 16 h measured for O=C(O[C@@H]1Cc2c(O)cc(O)cc2O[C@@H]1c1cc(O)c(O)c(O)c1)c1cc(O)c(O)c(O)c1 [EPIGALOCATECHIN GALLATE] and print it. 15
